Entries annotated with measured EC50
target: human NAMPT (Homo sapiens (Human), UniProt P43490); test: NMN fluorescence biochemical assay (human recombinant NAMPT enzyme assay)
Sequence (P43490 whole entry): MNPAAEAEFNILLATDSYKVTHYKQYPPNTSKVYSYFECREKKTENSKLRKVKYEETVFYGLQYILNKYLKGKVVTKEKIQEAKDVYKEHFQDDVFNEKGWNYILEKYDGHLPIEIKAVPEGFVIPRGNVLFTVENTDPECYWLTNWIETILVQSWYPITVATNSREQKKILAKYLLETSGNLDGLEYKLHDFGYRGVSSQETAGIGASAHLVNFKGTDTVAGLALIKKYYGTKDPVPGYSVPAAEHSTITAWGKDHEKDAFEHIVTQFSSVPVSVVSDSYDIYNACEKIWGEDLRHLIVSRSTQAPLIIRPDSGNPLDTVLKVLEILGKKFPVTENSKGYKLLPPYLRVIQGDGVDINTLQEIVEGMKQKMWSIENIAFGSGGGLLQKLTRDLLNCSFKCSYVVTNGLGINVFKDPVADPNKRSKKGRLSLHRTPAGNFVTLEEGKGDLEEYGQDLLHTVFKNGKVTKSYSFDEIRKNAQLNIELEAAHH
Hi! Could you send only the number? It should be in µM, unit omitted.

Worked set:
Cn1nc(C(F)F)cc1C(=O)NCc1ccc(NC(=O)OCc2ccc(Cl)cc2)cc1 [Compound 345] : 20.3
CC(=O)N1CCOC(c2ccc(NC(=O)OCc3ccc(Cl)cc3)cc2)C1 (stereo not shown) [Compound 281] : 46.9
Cc1cc(C(=O)N[C@@H](C)c2ccc(NC(=O)OCc3ccc(Cl)cc3)cc2)on1 [Compound 200] : 2.12

We next turn to a different compound, shown below.
IN: Which measured EC50 value corresponds to COc1ccc(COC(=O)Nc2ccc(CN3CCC[C@@H]3c3cccnc3)cc2)cc1 [Compound 1] ?
OUT: 0.44

###

target: human NAMPT (Homo sapiens (Human)); assay: NMN fluorescence biochemical assay (human recombinant NAMPT enzyme assay)
readout type: log10(EC50) (log10 of the value in µM)
Log10 applied to EC50; unit prior to transform: µM.

Worked set:
COC1CCN(C(=O)N(C)[C@@H](C)c2ccc(NC(=O)OCc3ccc(Cl)cc3)cc2)CC1 : 1.14
CN(Cc1ccc(NC(=O)OCc2ccc(Cl)cc2)cc1)C(=O)c1ccncc1F : 0.00
CN1CC(=O)NC[C@@H]1c1ccc(NC(=O)OCc2ccc(F)cc2)cc1 : 1.24

IN: Which measured log10(EC50) value corresponds to CS(=O)(=O)N1CCC(Cc2ccc(NC(=O)OCc3cnco3)cc2)CC12CC2 (centres unmarked) ?
OUT: 1.10

IN: Also CC(=O)N1CC2CC(C1)C2Cc1ccc(NC(=O)OCc2cnco2)cc1 (centres unmarked) , if possible.
OUT: 0.43

###

Entries annotated with measured AC1.4 Human
target: human NAMPT (Homo sapiens (Human), UniProt P43490); experiment: NMN fluorescence biochemical assay (human recombinant NAMPT enzyme assay)

Worked set:
O=C(Nc1ccc(Cc2ncccn2)cc1)OCc1ccc(Cl)cc1 [Compound 279] : 3.43 µM
COCCn1nccc1C(=O)NCc1ccc(NC(=O)OCc2ccc(Cl)cc2)cc1 [Compound 166] : 1.38 µM

IN: Which measured AC1.4 Human value corresponds to C[C@H](NC(=O)C1CC1)c1ccc(NC(=O)OCc2cnco2)cc1 [Compound 266] ?
OUT: 2.98 µM

IN: Also C[C@H](NC(=O)c1cccnc1)c1ccc(NC(=O)OCc2ccc(Cl)cc2)cc1 [Compound 118] , if possible.
OUT: 0.95 µM

IN: Also CN(C)C(=O)N1CC2CCC(C1)C2Cc1ccc(NC(=O)OCc2cnco2)cc1 (stereo not drawn) [Compound 422] , if possible.
OUT: 0.07 µM

IN: Also O=C(Nc1ccc(Cc2ccns2)cc1)OCc1ccc(Cl)cc1 [Compound 350] , if possible.
OUT: 20.27 µM

IN: Also CN(C)S(=O)(=O)N1CC2(CC(c3ccc(NC(=O)OCc4cnco4)cc3F)C2)C1 [Compound 387] , if possible.
OUT: 0.08 µM

IN: Also CC(O)(c1ccncc1)c1ccc(NC(=O)OCc2ccc(Cl)cc2)cc1 (stereo not drawn) [Compound 247] , if possible.
OUT: 2.45 µM

IN: Also Cc1nocc1C(=O)NCc1ccc(NC(=O)OCc2ccc(Cl)cc2)cc1 [Compound 251] , if possible.
OUT: 2.59 µM

IN: Also CCc1ccc(C(=O)N[C@@H](C)c2ccc(NC(=O)OCc3ccc(Cl)cc3)cc2)cn1 [Compound 76] , if possible.
OUT: 0.64 µM

IN: Also CC(C)C(=O)N1CCC(Cc2ccc(NC(=O)OCc3ccc(Cl)cc3)cc2)CC1 [Compound 87] , if possible.
OUT: 0.68 µM

IN: Also Cc1cnoc1C(=O)NCc1ccc(NC(=O)OCc2ccc(Cl)cc2)cc1 [Compound 268] , if possible.
OUT: 3.05 µM

IN: Also Cn1nccc1Cc1ccc(NC(=O)OCc2ccc(Cl)cc2)cc1 [Compound 314] , if possible.
OUT: 5.75 µM

IN: Also O=C(Nc1ccc(CN2CCC[C@@H]2c2cccnc2)cc1)OCc1ccc(CO)cc1 [Compound 5] , if possible.
OUT: 0.07 µM

IN: Also CS(=O)(=O)N1C2CCC1CC(Cc1ccc(NC(=O)OCc3cnco3)cc1)C2 (stereo not drawn) [Compound 406] , if possible.
OUT: 0.13 µM

###

biological target: UniProt P43490; assay: NMN fluorescence biochemical assay (human recombinant NAMPT enzyme assay)
Exam item: assign rule met to entries whose AC1.4 Human is below 0.6 µM and rule not met to entries at or above 0.6 µM. Note that a value of exactly 0.6 µM receives rule not met.

Reference set, count: 3
Cc1coc(C(=O)N(C)Cc2ccc(NC(=O)OCc3ccc(Cl)cc3)cc2)n1 : rule not met
CC(C)C(=O)N1CC2CC(C1)C2Cc1ccc(NC(=O)OCc2cnco2)cc1 (stereo not drawn) : rule met
O=C(Nc1ccc(CC2CC3(CCNC3)C2)c(F)c1)OCc1cnco1 (stereo not drawn) : rule met

IN: Criterion: AC1.4 Human strictly below 0.6 µM. Is it met by `CN(Cc1ccc(NC(=O)OCc2ccc(Cl)cc2)cc1)C(=O)c1ccn[nH]1` ?
OUT: rule not met

IN: Also `Cc1nn(C)c(C(=O)NCc2ccc(NC(=O)OCc3ccc(Cl)cc3)cc2)c1C` , if possible.
OUT: rule met

IN: Also `CN(C)C(=O)N1CCC(Cc2ccc(NC(=O)OCc3ccc(Cl)cc3)cc2)CC1` , if possible.
OUT: rule met

###

molecular target: UniProt:P43490; assay: NMN fluorescence biochemical assay (human recombinant NAMPT enzyme assay)
Entries annotated with measured AC1.4 Human
Write down the value, and be sure its unit follows.

Worked set:
CCS(=O)(=O)N1CCC(c2ccc(NC(=O)OCc3cnco3)cc2)CC1 [Compound 427] : 0.16 µM
CN(Cc1ccc(NC(=O)OCc2ccc(Cl)cc2)cc1)C(=O)c1ccc(C(F)F)nc1 [Compound 298] : 4.66 µM

We next turn to a different compound, shown below.
IN: For UniProt:P43490, provide AC1.4 Human of CN(C)C(=O)N1C2CCC1CC(Cc1ccc(NC(=O)OCc3cnco3)cc1)C2 (stereo not drawn) [Compound 408] please.
OUT: 0.05 µM

###

Entries annotated with measured pEC50
target: human NAMPT (Homo sapiens (Human)); assay: NMN fluorescence biochemical assay (human recombinant NAMPT enzyme assay)
Schema: pEC50 number; meaning minus log10 of the concentration expressed in molar units.

Worked set:
COC1CCN(C(=O)N(C)Cc2ccc(NC(=O)OCc3ccc(Cl)cc3)cc2)CC1 : 5.25
O=C(Nc1ccc(Cc2ccccc2)cc1)OCc1ccc(Cl)cc1 : 5.26

We next turn to a different compound, shown below.
IN: Which measured pEC50 value corresponds to `CN(C)S(=O)(=O)N1CCC[C@H](c2ccc(NC(=O)OCc3cnco3)cc2)C1` ?
OUT: 4.99

###

biological target: human NAMPT (Homo sapiens (Human), UniProt P43490); test: NMN fluorescence biochemical assay (human recombinant NAMPT enzyme assay)
readout type: AC1.4 Human (µM)
Hi! Could you send only the number? It should be in µM, unit omitted.

O=C1CN(C2COC2)[C@@H](c2ccc(NC(=O)OCc3ccc(Cl)cc3)cc2)CN1 [Compound 346] : 13.52

IN: Which measured AC1.4 Human value corresponds to CN(C)C(=O)N1CCC[C@H](c2ccc(NC(=O)OCc3cnco3)cc2)C1 [Compound 376] ?
OUT: 0.06

IN: Also O=C(Nc1ccc(CNC(=O)c2ccccn2)cc1)OCc1ccc(Cl)cc1 [Compound 272] , if possible.
OUT: 3.18

###

biological target: human NAMPT (Homo sapiens (Human), UniProt P43490); assay: NMN fluorescence biochemical assay (human recombinant NAMPT enzyme assay)
readout type: AC1.4 Human (µM)
Hi! Could you send only the number? It should be in µM, unit omitted.

Worked set:
Cc1ccc(C(=O)NCc2ccc(NC(=O)OCc3cncs3)cc2)cn1 [Compound 66] : 0.59
CN(C)C(=O)N1CCC2(CC(c3ccc(NC(=O)OCc4cnco4)cc3F)C2)C1 (single isomer, unassigned) [Compound 364] : 0.07
O=C(Nc1ccc(CC2CCN(C3COC3)C3(CC3)C2)cc1)OCc1cnco1 (stereo not drawn) [Compound 441] : 0.17

IN: Which measured AC1.4 Human value corresponds to O=C(Nc1ccc(CC2CC3CCC(C2)N3C(=O)N2CCCCC2)cc1)OCc1cnco1 (stereo not drawn) [Compound 390] ?
OUT: 0.13

IN: Also CC1CCCN1C(=O)Cc1ccc(NC(=O)OCc2ccc(Cl)cc2)cc1 (stereo not drawn) [Compound 215] , if possible.
OUT: 1.96

IN: Also Cn1ccc(C(=O)NCc2ccc(NC(=O)OCc3ccc(Cl)cc3)cc2)n1 [Compound 255] , if possible.
OUT: 2.65

IN: Also Cc1ncc(C(=O)NCc2ccc(NC(=O)OCc3ccc(Cl)cc3)cc2)o1 [Compound 157] , if possible.
OUT: 1.32

IN: Also CS(=O)(=O)N1CC2CCC(C1)C2Cc1ccc(NC(=O)OCc2cnco2)cc1 (stereo not drawn) [Compound 420] , if possible.
OUT: 0.12

IN: Also Cc1nc(C)c(C(=O)NCc2ccc(NC(=O)OCc3ccc(Cl)cc3)cc2)o1 [Compound 211] , if possible.
OUT: 1.91
